System: WPMY1-GM130-SQSTM1
Experiment: lowest phenotypically active concentration; higher = less potent
Conditions: treatment time: 24 h
Where a name gives a salt, the structure may show the parent alone.
Measured lowest phenotypically active concentration of individual entries
Measurement type: lowest phenotypically active concentration (µM)

{"Molecule": "C=C1[C@@H](O)C2C=CC[C@H](C)C(=O)[C@](C)(O)C=C[C@@H](OC(C)=O)[C@]23C(=O)N[C@H](Cc2ccccc2)[C@@H]3[C@@H]1C (stereo partly drawn)", "Unit text": "µM", "Bound operator": "≤", "Numeric result": 0.3}
{"Molecule": "CN1C[C@H](C(=O)N[C@]2(C)O[C@@]3(O)[C@@H]4CCCN4C(=O)[C@H](Cc4ccccc4)N3C2=O)C=C2c3cccc4[nH]cc(c34)C[C@H]21", "Unit text": "µM", "Bound operator": "=", "Numeric result": 3}
{"Molecule": "C[C@@H](CO)NC(=O)[C@@H]1C=C2c3cccc4[nH]cc(c34)C[C@H]2N(C)C1", "Unit text": "µM", "Bound operator": "=", "Numeric result": 9}
{"Molecule": "COC(=O)[C@@]1(O)C[C@H]2O[C@]1(C)n1c3ccccc3c3c4c(c5c6ccccc6n2c5c31)C(=O)NC4", "Unit text": "µM", "Bound operator": "≤", "Numeric result": 0.3}
{"Molecule": "C[C@@H]1NCCc2cc(O)c(O)cc21 [Salsolinol hydrobromide]", "Unit text": "µM", "Bound operator": "=", "Numeric result": 9}
{"Molecule": "C[C@]12CC[C@H](O)C[C@H]1CC[C@@H]1[C@@H]2CC[C@]2(C)[C@@H](C3=CC(=O)OC3)CC[C@]12O", "Unit text": "µM", "Bound operator": "=", "Numeric result": 1}
{"Molecule": "CC(C)c1cccc(C(C)C)c1O", "Unit text": "µM", "Bound operator": "=", "Numeric result": 3}
{"Molecule": "CN1C[C@H](CO)C=C2c3cccc4[nH]cc(c34)C[C@H]21", "Unit text": "µM", "Bound operator": "=", "Numeric result": 9}
{"Molecule": "CCCN1C[C@H](CSC)C[C@@H]2c3cccc4[nH]cc(c34)C[C@H]21 [pergolide]", "Unit text": "µM", "Bound operator": "=", "Numeric result": 9}
{"Molecule": "CC[C@]12C=CCN3CC[C@]4(C(=C(C(=O)OC)C1)Nc1ccccc14)[C@@H]32 [Tabersonine dichlorhydrate]", "Unit text": "µM", "Bound operator": "=", "Numeric result": 9}
{"Molecule": "C[C@@]12C(=O)OC(=O)[C@]1(C)[C@H]1CC[C@@H]2O1", "Unit text": "µM", "Bound operator": "=", "Numeric result": 3}
{"Molecule": "COc1cc([C@@H]2c3cc4c(cc3[C@H](O)[C@H]3COC(=O)[C@H]23)OCO4)cc(OC)c1OC", "Unit text": "µM", "Bound operator": "≤", "Numeric result": 0.3}
{"Molecule": "CC[C@@H](C(=O)[C@@H](C)[C@@H](O)[C@H](C)[C@@H]1O[C@@H]([C@@H](CC)C(=O)O)CC[C@@H]1C)[C@H]1O[C@]2(C=C[C@@H](O)[C@]3(CC[C@@](C)([C@H]4CC[C@](O)(CC)[C@H](C)O4)O3)O2)[C@H](C)C[C@@H]1C [Salinomycin Sodium]", "Unit text": "µM", "Bound operator": "≤", "Numeric result": 0.3}
{"Molecule": "C[C@]12CC[C@H]3[C@@H](CC[C@]4(O)C[C@@H](O)CC[C@]34C=O)[C@@]1(O)CC[C@@H]2C1=CC(=O)OC1", "Unit text": "µM", "Bound operator": "≤", "Numeric result": 0.3}
{"Molecule": "O=C1NC(=O)c2c1c1c3ccccc3n3c1c1c2c2ccccc2n1C1CCC3O1", "Unit text": "µM", "Bound operator": "≤", "Numeric result": 0.3}
{"Molecule": "C[C@H]1O[C@@H](O[C@H]2[C@@H](O)C[C@H](O[C@H]3[C@@H](O)C[C@H](O[C@H]4CC[C@@]5(C)[C@H](CC[C@@H]6[C@@H]5CC[C@]5(C)[C@@H](C7=CC(=O)OC7)[C@@H](O)C[C@]65O)C4)O[C@@H]3C)O[C@@H]2C)C[C@H](O)[C@@H]1O", "Unit text": "µM", "Bound operator": "=", "Numeric result": 1}
{"Molecule": "N#CC(C#N)=NNc1cccc(Cl)c1", "Unit text": "µM", "Bound operator": "=", "Numeric result": 9}
{"Molecule": "C[C@@]1(CO)[C@H](O)CC[C@@]2(C)[C@H]1CC[C@H]1C[C@@H]3C[C@@]12CC[C@]3(O)CO", "Unit text": "µM", "Bound operator": "≤", "Numeric result": 0.3}
{"Molecule": "COc1cc2c(c(OC)c1OC)-c1ccc(OC)c(=O)cc1[C@@H](NC(C)=O)CC2", "Unit text": "µM", "Bound operator": "≤", "Numeric result": 0.3}
{"Molecule": "C[C@H](CCC(=O)O)C[C@H](C)C[C@H](C)C(=O)/C=C(\\O)[C@H](C)C[C@H](C)C/C=C/[C@@H](C)[C@@H](O)[C@@H](C)[C@@H](O)C[C@@H]1CC[C@@](C)([C@H]2CC[C@@](C)([C@@H](C)O)O2)O1 [Ionomycin free acid]", "Unit text": "µM", "Bound operator": "=", "Numeric result": 9}
{"Molecule": "CCCCCC[C@H]1C(=O)O[C@H](C)[C@H](NC(=O)c2cccc(NC=O)c2O)C(=O)O[C@@H](C)[C@@H]1OC(=O)CC(C)C [antimycin a]", "Unit text": "µM", "Bound operator": "=", "Numeric result": 1}
{"Molecule": "c1ccc([C@@H]2C[C@H]2NC2CCNCC2)cc1 [GSK LSD 1 dihydrochloride]", "Unit text": "µM", "Bound operator": "=", "Numeric result": 9}
{"Molecule": "Cc1cc2c(C(C)C)c(O)c(O)c(C=O)c2c(O)c1-c1c(C)cc2c(C(C)C)c(O)c(O)c(C=O)c2c1O", "Unit text": "µM", "Bound operator": "=", "Numeric result": 9}
